# System: T1, human CD200R1 expressed on cells (Jurkat-CD200R1, U937-CD200R1, HH cells) (human, UniProt Q8TD46 25-348)
# T1 construct: whole, on cells; also called HH (CRL-2105); cell surface-expressed CD200R1
# T1 sequence (looked up): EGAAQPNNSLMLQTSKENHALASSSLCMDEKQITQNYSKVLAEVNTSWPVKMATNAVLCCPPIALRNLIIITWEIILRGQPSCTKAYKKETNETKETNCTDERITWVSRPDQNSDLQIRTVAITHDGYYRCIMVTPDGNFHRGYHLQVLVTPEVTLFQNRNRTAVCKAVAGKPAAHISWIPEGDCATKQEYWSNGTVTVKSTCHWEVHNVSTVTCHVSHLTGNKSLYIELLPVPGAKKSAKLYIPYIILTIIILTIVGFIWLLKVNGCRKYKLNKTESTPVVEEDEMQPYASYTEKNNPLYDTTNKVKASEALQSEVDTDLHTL
# Measurement Notes: flow cytometry, HH cells; drawn table
Use Criterion met when the recorded Geo mean (%) at 50 nM is no lower than 90%; use Criterion not met when it is lower.

[
  {
    "Binder": "P001018 scFv mutant L3-L95D (scFv) scFv: QVQLVQSGAEVKKPGASVKVSCKASGYTFTSYVMHWVRQAPGQGLEWMGYINPYNDDTNYNEKFKGRVTMTRDTSTSTVYMELSSLRSEDTAVYYCAREDYYGSRWGYWGQGTLVTVSSGGGGSGGGGSGGGGSDIVLTQSPASLAVSPGQRATITCRASKSVSTSGYSYMHWYQQKPGQPPKLLIYLASNLESGVPARFSGSGSGTDFTLTINPVEANDTANYYCQHSRELDTFGQGTKVEIK",
    "Assigned Label": "Criterion met"
  },
  {
    "Binder": "P001018 scFv mutant L3-R92H (scFv) scFv: QVQLVQSGAEVKKPGASVKVSCKASGYTFTSYVMHWVRQAPGQGLEWMGYINPYNDDTNYNEKFKGRVTMTRDTSTSTVYMELSSLRSEDTAVYYCAREDYYGSRWGYWGQGTLVTVSSGGGGSGGGGSGGGGSDIVLTQSPASLAVSPGQRATITCRASKSVSTSGYSYMHWYQQKPGQPPKLLIYLASNLESGVPARFSGSGSGTDFTLTINPVEANDTANYYCQHSHELLTFGQGTKVEIK",
    "Assigned Label": "Criterion met"
  }
]

Determine whether this binder has Geo mean (%) at 50 nM no lower than 90%: P001018 scFv mutant H3-Y102K (scFv) scFv: QVQLVQSGAEVKKPGASVKVSCKASGYTFTSYVMHWVRQAPGQGLEWMGYINPYNDDTNYNEKFKGRVTMTRDTSTSTVYMELSSLRSEDTAVYYCAREDYYGSRWGKWGQGTLVTVSSGGGGSGGGGSGGGGSDIVLTQSPASLAVSPGQRATITCRASKSVSTSGYSYMHWYQQKPGQPPKLLIYLASNLESGVPARFSGSGSGTDFTLTINPVEANDTANYYCQHSRELLTFGQGTKVEIK
Criterion not met
